assay: Inhibition of Salmonella typhimurium Serine acetyltransferase expressed in Escherichia coli Tuner(TM) BL21(DE3) cells using acetylCo-A and L-serine as substrate measured every 27 secs for 5 mins by DNTB reagent-based UV-Visible spectrophotometric method; set-up: species or system Salmonella enterica subsp. enterica serovar Typhimurium
pIC50: −log10 of the molar value.

>  <COMPOUND>
Cc1snnc1C(=O)Nc1ncc([N+](=O)[O-])s1

>  <pIC50>
4.32

$$$$
>  <COMPOUND>
C=CCSc1nc2c(c(=O)[nH]1)C(c1ccc(OCC(N)=O)cc1)CC(=O)N2 (stereo not given)

>  <pIC50>
4.08

$$$$
>  <COMPOUND>
O=C(Nc1ncc([N+](=O)[O-])s1)c1csnn1

>  <pIC50>
4.31

$$$$
>  <COMPOUND>
COc1cccc(NC(=O)c2cc(-c3ccc(OC)c(S(N)(=O)=O)c3)[nH]n2)c1

>  <pIC50>
4.87

$$$$
>  <COMPOUND>
COc1ccc(-c2cc(C(=O)NCc3ccccc3)n[nH]2)cc1S(N)(=O)=O

>  <pIC50>
4.28

$$$$

Entry source: ChEMBL document CHEMBL4613294
